Reference for the values: ChEMBL document CHEMBL1201862

Test system: SNB-19
Assay: NCI tumour cell line growth inhibition, 48 h
Activity calls are given as the source filed them. Cut-off read from the data, not from the text of the source: active = GI50 up to about 1.1 µM and inactive = higher. Where a SMILES comes first, the peptide text is derived from it. The star is where a group is joined. Boc = CC(C)(C)OC(=O)*
Hello, when you answer, please use one of the following outcomes: active, inactive

Previously resolved entries follow.
{"COMPOUND": "Cc1ncc(CSc2ccccc2N)c(CO)c1O", "CLASSIFICATION": "inactive"}
{"COMPOUND": "O=C(CCN1CCN(c2cccc(Cl)c2)CC1)N1CCc2c([nH]c3ccccc23)C1c1cccnc1 (centres undefined)", "CLASSIFICATION": "inactive"}
{"COMPOUND": "COC(=O)C(Cc1c[nH]c2ccccc12)NC(=O)C(Cc1c[nH]c2ccccc12)NC(=O)C(Cc1c[nH]c2ccccc12)NC(=O)C(Cc1c[nH]c2ccccc12)NC(=O)C(Cc1c[nH]c2ccccc12)NC(=O)C(Cc1c[nH]c2ccccc12)NC(=O)C(Cc1c[nH]c2ccccc12)NC(=O)OC(C)(C)C (centres undefined) (Boc-WWWWWWW-OMe; configuration not given here)", "CLASSIFICATION": "inactive"}

What did the test return for O=C(O)Cc1nc[nH]c1C(=O)O ?
inactive

What did the test return for COc1ccc(C(C)NNC(=O)c2cc[n+]([BH2-]C#N)cc2)cc1F (centres undefined) ?
inactive

====

Test system: MDA-MB-435
Test: NCI tumour cell line growth inhibition, 48 h
Activity calls are given as the source filed them. Rule as the data show it: active = GI50 up to about 1.1 µM and inactive = higher.
MEASURED_PROPERTY: GI50

These solved cases illustrate the format of a correct answer.
{"COMPOUND": "O=c1[nH]c(=O)n(C2CC(O)C(CO)O2)cc1Oc1ccccc1 (stereo not drawn)", "SUBJECT_OF_TEST": "MDA-MB-435", "DATA_VALUE": "> 100 µM (inactive)"}
{"COMPOUND": "O=S(=O)(CCC[C@H]1[C@@H](CCOCc2ccccc2)C2CCCN1O2)c1ccccc1 (stereo partly drawn)", "SUBJECT_OF_TEST": "MDA-MB-435", "DATA_VALUE": "> 100 µM (inactive)"}

Return the recorded GI50 value; entry: C1CCC2C(C1)CCCC2NC1=NCCO1 (stereo not drawn)
> 100 µM (inactive)

====

Test system: A498
Assay: NCI tumour cell line growth inhibition, 48 h
Active and inactive are the calls of the source. Rule as the data show it: active = GI50 up to about 1.1 µM and inactive = higher.
Hello, when you answer, please use one of the following outcomes: active, inactive

Previously resolved entries follow.
{"MOLECULE": "Nc1ccccc1C(=O)CCC1C(=O)NC(=S)NC1=O", "CLASSIFICATION": "inactive"}
{"MOLECULE": "Nc1ncnn2c(C3OC(CO)C(O)C3O)ccc12 (stereo unspecified)", "CLASSIFICATION": "active"}
{"MOLECULE": "NC(=S)Nc1nnc(-c2ccc(-c3nnc(NC(N)=S)o3)cc2)o1", "CLASSIFICATION": "inactive"}

What did the test return for CCCCCCCCCCCCn1c(=O)cc(NCCCC)c2cc3c(NCCCC)cc(=O)n(CCCCCCCCCCCC)c3nc21 ?
inactive

What did the test return for COc1ccc(C(=O)/C=C/c2ccc(Oc3cc(C(=O)/C=C/c4ccc(O)cc4)c(O)cc3OC)cc2)c(O)c1 ?
inactive

What did the test return for C=C(C)[C@@H]1CC[C@]2(C(=O)O)CC[C@]3(C)[C@H](CC[C@@H]4[C@@]5(C)CC(=O)C(C)(C)[C@@H]5CC[C@]43C)[C@@H]12 ?
inactive

====

Test system: LOX IMVI
Test: NCI tumour cell line growth inhibition, 48 h
Activity calls are given as the source filed them. Rule as the data show it: active = GI50 up to about 1.1 µM and inactive = higher.
Give GI50 for every item shown.

These solved cases illustrate the format of a correct answer.
{"MOLECULE": "Cc1cccc2c1NC(=S)[C@@H]1CCCN1C2=O", "SUBJECT_OF_TEST": "LOX IMVI", "DATA_VALUE": "> 100 µM (inactive)"}
{"MOLECULE": "C[C@@H]1C(O)CC[C@H](C)C12CC=CC2=O (stereo not given in full)", "SUBJECT_OF_TEST": "LOX IMVI", "DATA_VALUE": "> 100 µM (inactive)"}
{"MOLECULE": "COc1cc(C2C(Cl)C(=O)N2n2cnc3ccccc3c2=O)cc(OC)c1OC (stereo not given)", "SUBJECT_OF_TEST": "LOX IMVI", "DATA_VALUE": "57.4 µM (inactive)"}
{"MOLECULE": "CCOC1C=CC(=O)C(CO)O1 (stereo not given)", "SUBJECT_OF_TEST": "LOX IMVI", "DATA_VALUE": "5.58 µM (inactive)"}

Shifting focus to the molecule that follows.
Specify GI50 for CCOC(=O)CC/C(=N/Nc1ccc(Cl)cc1[N+](=O)[O-])C(=O)OCC , system LOX IMVI.
> 100 µM (inactive)

====

System: EKVX
Assay: NCI tumour cell line growth inhibition, 48 h
The source made the active and inactive calls. No stated cut-off is given here; in the data, active = GI50 up to about 1.1 µM and inactive = higher.
Give GI50 for every item shown.

These solved cases illustrate the format of a correct answer.
{"MOLECULE": "CCOC1C=CC(=O)C(CO)O1 (configuration not stated)", "GI50": "14.3 µM (inactive)"}
{"MOLECULE": "O=CC(I)=C(c1ccccc1)c1ccccc1", "GI50": "18.9 µM (inactive)"}
{"MOLECULE": "COc1cc(O)c2c(=O)c(O)c(-c3ccc(O)c(O)c3)oc2c1", "GI50": "10.2 µM (inactive)"}
{"MOLECULE": "OC1=CN=C(C2CC2)Oc2ccccc21", "GI50": "> 100 µM (inactive)"}
{"MOLECULE": "CCOP(=O)(Nc1ccc(-c2ccccc2)cc1)OCC", "GI50": "65 µM (inactive)"}

Look at each molecule and report its GI50.
1. N#CC(c1nc2ccccc2s1)c1ncnc(Cl)c1[N+](=O)[O-] (configuration not stated)
2. COC(=O)[C@H](Cc1c[nH]c2ccccc12)NC(=O)c1ccc(CNC(=O)/C=C/c2cccc(Oc3ccccc3)c2)cc1
3. CC(C(=O)O)/C(=C\c1ccc2c(c1)OCO2)C(=O)O (configuration not stated)
4. CCOC(=O)CC/C(=N/Nc1ccc(Cl)cc1[N+](=O)[O-])C(=O)OCC
5. CCOC(=O)c1c(Br)c(-c2ccc(OC)cc2)c(Br)n1C
6. Clc1cccc(C2N3CCCCC3[C@@H]3c4[nH]c5ccccc5c4CCN23)c1 (some centres not stated)
7. CC(=O)OCC1OC(NC(=S)N/N=C2\CC(c3ccccc3)Oc3ccccc32)C(OC(C)=O)C(OC(C)=O)C1OC(C)=O (configuration not stated)

23.2 µM (inactive)
> 100 µM (inactive)
> 53.6 µM (inactive)
> 100 µM (inactive)
16.8 µM (inactive)
56 µM (inactive)
> 100 µM (inactive)

Look at each molecule and report its GI50.
1. CCc1nc(N)nc(N)c1-c1ccc2nnn(O)c2c1
2. COc1ccc(CNc2nc(NCc3ccc(OC)cc3)nc(Nc3ccccc3)n2)cc1
3. C=C(Cl)CN1c2ccccc2C=Cc2ccccc21
4. COC(=O)c1cc(S(=O)(=O)NC2=NNC(C)CN2)c(S)cc1Cl (configuration not stated)

["> 100 µM (inactive)", "> 100 µM (inactive)", "19.1 µM (inactive)", "90.2 µM (inactive)"]

Return the recorded GI50 value; entry: COc1cc2c(c(O)c1OC)C(=O)C1CCC(=O)N1C2c1cccc2ccccc12 (configuration not stated)
37.5 µM (inactive)

====

Test system: OVCAR-4
Assay: NCI tumour cell line growth inhibition, 48 h
Calls of active or inactive are those of the source. Cut-off read from the data, not from the text of the source: active = GI50 up to about 1.1 µM and inactive = higher.
MEASURED_PROPERTY: GI50

{"COMPOUND": "COc1ccc(-c2nc(-c3cnccn3)n(C3OC(CO)C(O)C3O)n2)cc1 (stereo unspecified)", "SUBJECT_OF_TEST": "OVCAR-4", "GI50": "> 10 µM (inactive)"}
{"COMPOUND": "O=C1OC2CCCC[C@@H]2C2C[C@]34CCCCC3[C@@H](C(=O)O4)C12 (stereo partly specified)", "SUBJECT_OF_TEST": "OVCAR-4", "GI50": "> 100 µM (inactive)"}
{"COMPOUND": "O=C1c2ccccc2C2(Br)C(=O)c3ccccc3C12 (stereo unspecified)", "SUBJECT_OF_TEST": "OVCAR-4", "GI50": "> 100 µM (inactive)"}
{"COMPOUND": "C#CC1(O)CC(c2ccccc2)N(C)C(c2ccccc2)C1 (stereo unspecified)", "SUBJECT_OF_TEST": "OVCAR-4", "GI50": "> 100 µM (inactive)"}
{"COMPOUND": "CC/C(N)=N\\NC(=O)OC(C)(C)C", "SUBJECT_OF_TEST": "OVCAR-4", "GI50": "> 100 µM (inactive)"}

Shifting focus to the compound that follows.
Return the recorded GI50 value; entry: O=[N+]([O-])c1ccccc1S(=O)(=O)c1ccccc1
52.6 µM (inactive)
